The reported measurements were obtained from patent US10736932B2.

Molecular target: K-Ras / Raf RBD interaction (Homo sapiens, UniProt P01116, G12V)
Construct: The G12V mutant K-Ras (amino acids 1-185) was recombinantly fused; GST (N, cleaved yes); made in house; host or cells: Escherichia coli BL21
Sequence (P01116 1-185 isoform P01116-2 G12V): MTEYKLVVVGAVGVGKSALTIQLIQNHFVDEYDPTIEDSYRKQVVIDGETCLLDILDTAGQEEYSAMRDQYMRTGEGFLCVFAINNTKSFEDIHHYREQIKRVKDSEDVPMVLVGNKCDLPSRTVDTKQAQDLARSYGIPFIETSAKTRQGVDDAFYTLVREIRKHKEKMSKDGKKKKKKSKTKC
Assay: HTRF assay, inhibition of Ras-Raf RBD interaction
Type: binding
pIC50: −log10 of the molar value. Square brackets hold non-standard residues; d marks the D form. Peptide text beside a SMILES is read from it. Phe(4-Cl) = N[C@@H](Cc1ccc(Cl)cc1)C(=O)O; Phe(4-F) = N[C@@H](Cc1ccc(F)cc1)C(=O)O; d2Nal = N[C@H](Cc1ccc2ccccc2c1)C(=O)O; dNle = CCCC[C@@H](N)C(=O)O
Outcome measure: pIC50

Molecule	Measurement
C[C@H]1NC(=O)[C@H]([C@@H](C)O)NC(=O)[C@H](Cc2c[nH]c3ccccc23)NC(=O)[C@H](CCC(N)=O)NC(=O)[C@@H](CCCNC(=N)N)NC(=O)[C@H](Cc2ccc(F)cc2)NC(=O)[C@H](CCCNC(=N)N)NC(=O)[C@@H](Cc2ccc3ccccc3c2)NC(=O)[C@H](CCCNC(=N)N)NC(=O)[C@H](CCCNC(=N)N)NC(=O)[C@H](CCCNC(=N)N)NC1=O [Cyclorasin 9A45] (cyclo(WT[dA]RRR[d2Nal]R[Phe(4-F)][dR]Q))	7.44
CCCC[C@H]1NC(=O)[C@H](Cc2ccc(Cl)cc2)NC(=O)[C@H](CCCNC(=N)N)NC(=O)[C@@H](Cc2ccc3ccccc3c2)NC(=O)[C@H](CCCNC(=N)N)NC(=O)[C@H](CCCNC(=N)N)NC(=O)[C@H](CCCNC(=N)N)NC(=O)[C@@H](C)NC(=O)[C@H]([C@@H](C)O)NC(=O)[C@H](Cc2c[nH]c3ccccc23)NC(=O)[C@H](CCC(N)=O)NC1=O [Cyclorasin 9A42] (cyclo(WT[dA]RRR[d2Nal]R[Phe(4-Cl)][dNle]Q))	6.89

* * *

# maps each entry to its Kd
Target: K-Ras(G12V) (Homo sapiens, UniProt P01116, G12V)
Construct: The G12V mutant K-Ras (amino acids 1-185) was recombinantly fused; GST (N, cleaved yes); made in house; host or cells: Escherichia coli BL21
Assay: Fluorescence anisotropy (FA) binding of FITC-labeled cyclic peptides to K-Ras
Conditions: Table 2; FITC-labeled peptide; read-out: Binding affinity KD
Square brackets hold non-standard residues; d marks the D form. Peptide text beside a SMILES is read from it. * marks the point of attachment. FITC = O=C1OC2(c3ccc(O)cc3Oc3cc(O)ccc32)c2ccc(NC(=S)*)cc21; Phe(4-F) = N[C@@H](Cc1ccc(F)cc1)C(=O)O; d2Nal = N[C@H](Cc1ccc2ccccc2c1)C(=O)O; Isonicotinoyl = O=C(c1ccncc1)*; Tle = CC(C)(C)[C@H](N)C(=O)O; X5 = O=C(c1cc(F)cc(Br)c1)*; X4 = O=C(c1ccc(Cl)nc1)*; Dap = NC[C@H](N)C(=O)O

Molecule	Unit	Kd
C[C@H]1NC(=O)[C@H](C(C)(C)C)NC(=O)[C@H](Cc2c[nH]c3ccccc23)NC(=O)[C@H](CCC(N)=O)NC(=O)[C@@H](CCCCN)NC(=O)[C@H](Cc2ccc(F)cc2)NC(=O)[C@H](CCCNC(=N)N)NC(=O)[C@@H](Cc2ccc3ccccc3c2)NC(=O)[C@H](CCCCNC(=S)Nc2ccc3c(c2)C(=O)OC32c3ccc(O)cc3Oc3cc(O)ccc32)NC(=O)[C@H](CCCNC(=N)N)NC(=O)[C@H](CCCNC(=N)N)NC1=O [Cyclorasin 9A31] (cyclo(K(FITC)[d2Nal]R[Phe(4-F)][dK]QW[Tle][dA]RR))	nM	110
C[C@H]1NC(=O)[C@H](C(C)(C)C)NC(=O)[C@H](CNC(=O)c2cc(F)cc(Br)c2)NC(=O)[C@H](CCC(N)=O)NC(=O)[C@@H](CCCCN)NC(=O)[C@H](Cc2ccc(F)cc2)NC(=O)[C@H](CCCNC(=N)N)NC(=O)[C@@H](Cc2ccc3ccccc3c2)NC(=O)[C@H](CCCCNC(=S)Nc2ccc3c(c2)C(=O)OC32c3ccc(O)cc3Oc3cc(O)ccc32)NC(=O)[C@H](CCCNC(=N)N)NC(=O)[C@H](CCCNC(=N)N)NC1=O [Cyclorasin 9A25] (cyclo([Dap](X5)[Tle][dA]RRK(FITC)[d2Nal]R[Phe(4-F)][dK]Q))	nM	470
C[C@H]1NC(=O)[C@H](C(C)(C)C)NC(=O)[C@H](CNC(=O)c2ccncc2)NC(=O)[C@H](CCC(N)=O)NC(=O)[C@@H](CCCCN)NC(=O)[C@H](Cc2ccc(F)cc2)NC(=O)[C@H](CCCNC(=N)N)NC(=O)[C@@H](Cc2ccc3ccccc3c2)NC(=O)[C@H](CCCCNC(=S)Nc2ccc3c(c2)C(=O)OC32c3ccc(O)cc3Oc3cc(O)ccc32)NC(=O)[C@H](CCCNC(=N)N)NC(=O)[C@H](CCCNC(=N)N)NC1=O [Cyclorasin 9A29] (cyclo([Dap](Isonicotinoyl)[Tle][dA]RRK(FITC)[d2Nal]R[Phe(4-F)][dK]Q))	nM	1200
C[C@H]1NC(=O)[C@H](C(C)(C)C)NC(=O)[C@H](CNC(=O)c2ccc(Cl)nc2)NC(=O)[C@H](CCC(N)=O)NC(=O)[C@@H](CCCCN)NC(=O)[C@H](Cc2ccc(F)cc2)NC(=O)[C@H](CCCNC(=N)N)NC(=O)[C@@H](Cc2ccc3ccccc3c2)NC(=O)[C@H](CCCCNC(=S)Nc2ccc3c(c2)C(=O)OC32c3ccc(O)cc3Oc3cc(O)ccc32)NC(=O)[C@H](CCCNC(=N)N)NC(=O)[C@H](CCCNC(=N)N)NC1=O [Cyclorasin 9A27] (cyclo([Dap](X4)[Tle][dA]RRK(FITC)[d2Nal]R[Phe(4-F)][dK]Q))	nM	1000

* * *

# maps each entry to its IC50
Target: K-Ras / Raf RBD interaction (Homo sapiens, UniProt P01116, G12V)
Construct: The G12V mutant K-Ras (amino acids 1-185) was recombinantly fused; GST (N, cleaved yes); made in house; host or cells: Escherichia coli BL21
Experiment: HTRF assay, inhibition of Ras-Raf RBD interaction;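 also: HTRF signal read after overnight incubation of the assay plate at 4 °C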
Type: binding
Square brackets hold non-standard residues; d marks the D form. Side chains are listed from the residue outwards. Peptide text beside a SMILES is read from it. * marks the point of attachment. Phe(4-F) = N[C@@H](Cc1ccc(F)cc1)C(=O)O; 2Nal = N[C@@H](Cc1ccc2ccccc2c1)C(=O)O; d2Nal = N[C@H](Cc1ccc2ccccc2c1)C(=O)O; Tle = CC(C)(C)[C@H](N)C(=O)O; X5 = O=C(c1cc(F)cc(Br)c1)*; dNle = CCCC[C@@H](N)C(=O)O; Dap = NC[C@H](N)C(=O)O

Compound	IC50
CCCC[C@H]1NC(=O)[C@H](Cc2ccc(F)cc2)NC(=O)[C@H](CCCNC(=N)N)NC(=O)[C@@H](Cc2ccc3ccccc3c2)NC(=O)[C@H](CCCNC(=N)N)NC(=O)[C@H](CCCNC(=N)N)NC(=O)[C@@H](CCCNC(=N)N)NC(=O)[C@@H](C)NC(=O)[C@H]([C@@H](C)O)NC(=O)[C@H](Cc2c[nH]c3ccccc23)NC(=O)[C@H](CCC(N)=O)NC1=O [Cyclorasin 9A6] (cyclo(WT[dA][dR]RR[d2Nal]R[Phe(4-F)][dNle]Q))	170 nM
CCCC[C@H]1NC(=O)[C@H](CNC(=O)c2cc(F)cc(Br)c2)NC(=O)[C@H](CCCNC(=N)N)NC(=O)[C@@H](Cc2ccc3ccccc3c2)NC(=O)[C@H](CCCNC(=N)N)NC(=O)[C@H](CCCNC(=N)N)NC(=O)[C@H](CCCNC(=N)N)NC(=O)[C@@H](C)NC(=O)[C@H]([C@@H](C)O)NC(=O)[C@H](Cc2c[nH]c3ccccc23)NC(=O)[C@H](CCC(N)=O)NC1=O [Cyclorasin 9A44a] (cyclo(WT[dA]RRR[d2Nal]R[Dap](X5)[dNle]Q))	83 nM
CCCC[C@H]1NC(=O)[C@H](Cc2ccc(F)cc2)NC(=O)[C@H](CCCNC(=N)N)NC(=O)[C@@H](Cc2ccc3ccccc3c2)NC(=O)[C@H](CCCNC(=N)N)NC(=O)[C@H](CCCNC(=N)N)NC(=O)[C@@H](CCCNC(=N)N)NC(=O)[C@@H](C)NC(=O)[C@H](CO)NC(=O)[C@H](Cc2c[nH]c3ccccc23)NC(=O)[C@H](CCC(N)=O)NC1=O [Cyclorasin 9A17] (cyclo(WS[dA][dR]RR[d2Nal]R[Phe(4-F)][dNle]Q))	720 nM
CCCC[C@H]1NC(=O)[C@H](Cc2ccc(F)cc2)NC(=O)[C@H](CCCNC(=N)N)NC(=O)[C@@H](Cc2ccc3ccccc3c2)NC(=O)[C@H](CCCNC(=N)N)NC(=O)[C@H](CCCNC(=N)N)NC(=O)[C@H](CCCNC(=N)N)NC(=O)[C@@H](C(C)C)NC(=O)[C@H](C(C)(C)C)NC(=O)[C@H](Cc2c[nH]c3ccccc23)NC(=O)[C@H](CCC(N)=O)NC1=O [Cyclorasin 9A48] (cyclo(W[Tle][dV]RRR[d2Nal]R[Phe(4-F)][dNle]Q))	48 nM
C[C@H]1NC(=O)[C@H](Cc2ccc(F)cc2)NC(=O)[C@H](CCCNC(=N)N)NC(=O)[C@@H](Cc2ccc3ccccc3c2)NC(=O)[C@H](CCCNC(=N)N)NC(=O)[C@H](CCCNC(=N)N)NC(=O)[C@H](CCC(=O)N[C@@H](CCCCN)C(N)=O)NC(=O)[C@@H](C)NC(=O)[C@H]([C@@H](C)O)NC(=O)[C@H](Cc2c[nH]c3ccccc23)NC(=O)[C@@H](CO)NC1=O [Cyclorasin 9A(nle6dA)] (cyclo(RR[d2Nal]R[Phe(4-F)][dA][dS]WT[dA]E([Lys-NH2])))	7700 nM
CCCC[C@H]1NC(=O)[C@H](Cc2ccc(F)cc2)NC(=O)[C@H](CCCNC(=N)N)NC(=O)[C@@H](Cc2ccc3ccccc3c2)NC(=O)[C@H](C)NC(=O)[C@H](CCCNC(=N)N)NC(=O)[C@H](CCC(=O)N[C@@H](CCCCN)C(N)=O)NC(=O)[C@@H](C)NC(=O)[C@H]([C@@H](C)O)NC(=O)[C@H](Cc2c[nH]c3ccccc23)NC(=O)[C@@H](CO)NC1=O [Cyclorasin 9A(Arg2A)] (cyclo(RA[d2Nal]R[Phe(4-F)][dNle][dS]WT[dA]E([Lys-NH2])))	940 nM
CC(C)C[C@H]1NC(=O)[C@H](Cc2ccc(F)cc2)NC(=O)[C@H](CCCNC(=N)N)NC(=O)[C@@H](Cc2ccc3ccccc3c2)NC(=O)[C@H](CCCNC(=N)N)NC(=O)[C@H](CCCNC(=N)N)NC(=O)[C@@H](CCCNC(=N)N)NC(=O)[C@@H](C)NC(=O)[C@H]([C@@H](C)O)NC(=O)[C@H](Cc2c[nH]c3ccccc23)NC(=O)[C@H](CCC(N)=O)NC1=O [Cyclorasin 9A10] (cyclo(WT[dA][dR]RR[d2Nal]R[Phe(4-F)][dL]Q))	240 nM
CCCC[C@H]1NC(=O)[C@H](Cc2ccc(F)cc2)NC(=O)[C@H](CCCNC(=N)N)NC(=O)[C@@H](Cc2ccc3ccccc3c2)NC(=O)[C@H](CCCNC(=N)N)NC(=O)[C@H](CCCNC(=N)N)NC(=O)[C@H](CCC(=O)N[C@@H](CCCCN)C(N)=O)NC(=O)[C@@H](C)NC(=O)[C@H]([C@@H](C)O)NC(=O)[C@H](C)NC(=O)[C@@H](CO)NC1=O [Cyclorasin 9A(Trp8A)] (cyclo(RR[d2Nal]R[Phe(4-F)][dNle][dS]AT[dA]E([Lys-NH2])))	7200 nM
CCCC[C@H]1NC(=O)[C@H](Cc2ccc(F)cc2)NC(=O)[C@H](CCCNC(=N)N)NC(=O)[C@@H](Cc2ccc3ccccc3c2)NC(=O)[C@H](CCCNC(=N)N)NC(=O)[C@H](CCCNC(=N)N)NC(=O)[C@H](CCCNC(=N)N)NC(=O)[C@@H](C)NC(=O)[C@H]([C@@H](C)O)NC(=O)[C@H](Cc2ccc3ccccc3c2)NC(=O)[C@H](CCC(N)=O)NC1=O [Cyclorasin 9A49] (cyclo([2Nal]T[dA]RRR[d2Nal]R[Phe(4-F)][dNle]Q))	100 nM
